Test: in vitro
Conditions: rat, liver microsomes
What remaining at 10 min, 0.5 µM was measured for each of the following?
Give a bare numeral; the unit % is implied.

May I ask what remaining at 10 min, 0.5 µM has been recorded for O=C(O)c1cccc2c(Cl)c(CNC(=O)c3cnn4cccnc34)oc12 ?
91

May I ask what remaining at 10 min, 0.5 µM has been recorded for O=C(O)c1cc(Cl)cc2cc(CNC(=O)c3cnn4cccnc34)oc12 ?
100

May I ask what remaining at 10 min, 0.5 µM has been recorded for O=C(NCc1cc2cc(Cl)cc(-c3nn[nH]n3)c2o1)c1cnn2cccnc12 ?
89

May I ask what remaining at 10 min, 0.5 µM has been recorded for COC(=O)c1cccc2cc(CN3Cc4ccncc4C3=O)oc12 ?
7

May I ask what remaining at 10 min, 0.5 µM has been recorded for Cc1ccc2c(=O)c3cccc(CC(=O)O)c3oc2c1C ?
100

May I ask what remaining at 10 min, 0.5 µM has been recorded for O=C(O)c1c(F)ccc2cc(CNC(=O)c3cnn4cccnc34)oc12 ?
91

May I ask what remaining at 10 min, 0.5 µM has been recorded for O=C(O)c1ccc2oc(CNC(=O)c3cnn4cccnc34)cc2c1 ?
100

May I ask what remaining at 10 min, 0.5 µM has been recorded for C[C@H](NC(=O)c1cnn2cccnc12)c1cc2cc(Cl)cc(C(=O)O)c2o1 ?
94

May I ask what remaining at 10 min, 0.5 µM has been recorded for O=C(NCc1cc2cc(Cl)c3oc(=O)[nH]c(=O)c3c2o1)c1cnn2cccnc12 ?
69

May I ask what remaining at 10 min, 0.5 µM has been recorded for O=C(O)c1c(O)c(Cl)cc2cc(CNC(=O)c3cnn4cccnc34)oc12 ?
88

May I ask what remaining at 10 min, 0.5 µM has been recorded for Cn1c(CNC(=O)c2cnn3cccnc23)nc2c(C(=O)O)cccc21 ?
89

Where these numbers come from: ChEMBL document CHEMBL5042542
